src = the supplement of paper PMC6555819

# Test system: PPARg:RXRa IVT, anti-PPARg (NR concentration 270 nM, RXRa partner concentration 90 nM)
# Assay Info: PBM binding z-score (relative to random genomic background probes); higher = stronger binding; sequences stand for … in GC…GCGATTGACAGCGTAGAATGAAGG
Recorded Metric: PBM binding z-score
Answers are plain numbers.

| Sequence Chain | Recorded Metric | Readout Value |
| --- | --- | --- |
| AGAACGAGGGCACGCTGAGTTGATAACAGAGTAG | PBM binding z-score | 3.68 |
| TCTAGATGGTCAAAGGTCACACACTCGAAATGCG | PBM binding z-score | 5.41 |

I would be grateful if you could provide PBM binding z-score for each of the following entries.
1. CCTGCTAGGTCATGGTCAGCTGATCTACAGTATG
2. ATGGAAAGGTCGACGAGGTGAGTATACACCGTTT
3. CTTACAGGGTCAGCTAGGCCAGAGTAGGGACGGC
4. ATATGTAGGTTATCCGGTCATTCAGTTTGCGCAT
5. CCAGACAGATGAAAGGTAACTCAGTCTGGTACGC
6. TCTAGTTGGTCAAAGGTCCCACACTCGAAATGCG
7. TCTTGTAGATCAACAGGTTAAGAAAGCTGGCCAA

1. 4.18
2. 1.89
3. 2.59
4. 6.98
5. -0.154
6. 3.27
7. 0.82

I would be grateful if you could provide PBM binding z-score for each of the following entries.
1. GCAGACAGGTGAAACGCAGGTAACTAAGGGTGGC
2. ACTAGCAGGCCTAGGGTCACTCAAGATTAGTCCG
3. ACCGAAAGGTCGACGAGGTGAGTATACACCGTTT
4. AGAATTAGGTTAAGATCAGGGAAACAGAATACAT
5. ACTAGTTGGTCAGCAGAGGTCACACACAATTCGG
6. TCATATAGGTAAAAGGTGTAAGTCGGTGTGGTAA

[0.741, 0.917, 2.03, 5.8, 3.43, 3.58]

I would be grateful if you could provide PBM binding z-score for each of the following entries.
1. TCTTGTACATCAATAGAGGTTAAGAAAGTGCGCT
2. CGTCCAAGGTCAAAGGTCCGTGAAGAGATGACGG
3. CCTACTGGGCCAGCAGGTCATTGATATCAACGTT

1. 1.66
2. 4.24
3. 4.16

I would be grateful if you could provide PBM binding z-score for each of the following entries.
1. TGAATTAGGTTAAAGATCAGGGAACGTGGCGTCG
2. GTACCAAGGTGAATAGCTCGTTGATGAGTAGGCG
3. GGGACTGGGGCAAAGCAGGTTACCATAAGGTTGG
4. TCTCGAAGGACACGAAGGTCAGAGCTTTCCAGAG
5. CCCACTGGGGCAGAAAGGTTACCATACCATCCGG
6. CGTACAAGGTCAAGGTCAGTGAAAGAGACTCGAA

1: 5.63; 2: 1.7; 3: 5.97; 4: 1.03; 5: 3.8; 6: 5.48

I would be grateful if you could provide PBM binding z-score for each of the following entries.
1. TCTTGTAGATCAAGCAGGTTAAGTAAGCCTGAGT
2. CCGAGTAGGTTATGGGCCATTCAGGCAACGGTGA

1. 0.377
2. 2.58
